Test system: PC15
Assay: qHTS profiling for inhibitors of Plasmodium falciparum proliferation (AID 504749); further: nearly all actives have a fitted effect of over 60% in size
Settings: P. falciparum in erythrocytes, SYBR Green DNA, 72 h; series mostly up to 12.8 µM
Records with an inconclusive call do not appear. The source made the active and inactive calls. The call rests on the fitted dose curve; in most records, active means well fitted inhibition curve with a large enough effect; inconclusive means small, poorly fitted or top-dose-only effect; inactive means flat fitted curve, though single readings scatter.
The categories you may choose from are active, inactive

compound=CCN(CC)CCC[C@H](C)Nc1ccnc2cc(Cl)ccc12 class_label=active
compound=CCN(CC)CCC[C@H](C)Nc1c2ccc(Cl)cc2nc2ccc(OC)cc12 class_label=active
compound=CCCN[C@@H](C)C(=O)Nc1c(C)csc1C(=O)OC class_label=inactive
compound=CN[C@@H](CC(C)C)C(=O)N[C@@H]1C(=O)N[C@H](CC(N)=O)C(=O)N[C@@H]2C(=O)N[C@H]3C(=O)N[C@H](C(=O)N[C@H](C(=O)O)c4cc(O)cc(O)c4-c4cc3ccc4O)[C@H](O)c3ccc(c(Cl)c3)Oc3cc2cc(c3O[C@H]2O[C@@H](CO)[C@@H](O)[C@@H](O)[C@@H]2O[C@@H]2C[C@](C)(N)[C@H](O)[C@H](C)O2)Oc2ccc(cc2Cl)[C@@H]1O class_label=inactive
compound=O=c1[nH]c(=O)n([C@@H]2C[C@H](O)[C@H](CO)O2)cc1I class_label=inactive

Ask: Check the results log: what was the call for C[N+]1(C)CCC[C@@H](OC(=O)C(O)(c2ccccc2)c2ccccc2)C1 ?
Reply: inactive

Ask: Lab log entry: C[C@@H](C(=O)O)c1ccc(C(=O)c2cccs2)cc1 — outcome as called in the assay?
Reply: inactive

Ask: Record lookup: outcome of this test for CC(=O)OCC1=C(C(=O)O)N2C(=O)[C@@H](NC(=O)CSc3ccncc3)[C@@H]2SC1 ?
Reply: inactive

Ask: Call for entry CC(C)N1CCN(c2ccc(OC[C@@H]3CO[C@@](Cn4cncn4)(c4ccc(Cl)cc4Cl)O3)cc2)CC1 :
Reply: inactive

Ask: Which result was noted for this compound in the test: CN(C)[C@@H]1C(=O)C(C(N)=O)=C(O)[C@]2(O)C(=O)C3=C(O)c4c(O)ccc(Cl)c4[C@H](O)[C@H]3C[C@@H]12
Reply: inactive

Ask: I would be grateful if you could indicate the recorded call for COc1cc(/C=C/C(=O)/C=C(O)/C=C/c2ccc(O)c(OC)c2)ccc1O .
Reply: inactive

Ask: Could you please tell me the result logged for COc1c(O)cc2c(c1O)[C@@H]1O[C@@H](CO)[C@@H](O)[C@@H](O)[C@@H]1OC2=O in this assay?
Reply: inactive

---

Experiment: Confirmation and Secondary Assay for Modulators of Hemoglobin Beta Chain Splicing at IVS2 705 locus (AID 930);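 further: HeLa cells stably expressing the EGFP-705 splicing reporter; GFP fluorescence per well restored by corrected splicing of the IVS2-705 intron in EGFP; % of control where 0% means no effect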
Conditions: HeLa EGFP-705 splicing reporter, GFP fluorescence, 48 h; series mostly up to 38.3 µM
Calls of active or inactive are those of the source. The call rests on the fitted dose curve; in most records, active means well fitted activation curve with a large enough effect; inconclusive means small, poorly fitted or top-dose-only effect; inactive means flat fitted curve, though single readings scatter.
reported.metric: outcome

compound="NCC1OC(n2cnc3c(=O)[nH]c(N)nc32)C(O)C1O (stereo unspecified)" reported_metric=outcome readout_value=inactive
compound=COc1cc(-c2coc3cc(OCc4ccccc4)c(OC)c(O)c3c2=O)cc(O)c1OC reported_metric=outcome readout_value=inactive
compound=Cc1cc(OC(=O)c2c(C)cc(O)cc2O)cc(O)c1C(=O)O reported_metric=outcome readout_value=inactive
compound=COc1ccc2[nH]cc(CCNc3nc(-c4ccc(C(=O)N(C)C)cc4)nc4ccccc34)c2c1 reported_metric=outcome readout_value=inactive
compound=N#Cc1ccccc1-c1cncnc1NCc1cccnc1 reported_metric=outcome readout_value=inactive

List outcome for every entry below, keeping the order given.
1. COc1cccc(-c2nc(N3CCNCC3)c3ccccc3n2)c1
2. C[C@@](N)(Cc1ccc(O)cc1)C(=O)O

Reply:
1: inactive; 2: inactive

---

Molecular target: Cytochrome P450 3A4 (Homo sapiens) (UniProt P08684)
Sequence (P08684 whole entry, looked up): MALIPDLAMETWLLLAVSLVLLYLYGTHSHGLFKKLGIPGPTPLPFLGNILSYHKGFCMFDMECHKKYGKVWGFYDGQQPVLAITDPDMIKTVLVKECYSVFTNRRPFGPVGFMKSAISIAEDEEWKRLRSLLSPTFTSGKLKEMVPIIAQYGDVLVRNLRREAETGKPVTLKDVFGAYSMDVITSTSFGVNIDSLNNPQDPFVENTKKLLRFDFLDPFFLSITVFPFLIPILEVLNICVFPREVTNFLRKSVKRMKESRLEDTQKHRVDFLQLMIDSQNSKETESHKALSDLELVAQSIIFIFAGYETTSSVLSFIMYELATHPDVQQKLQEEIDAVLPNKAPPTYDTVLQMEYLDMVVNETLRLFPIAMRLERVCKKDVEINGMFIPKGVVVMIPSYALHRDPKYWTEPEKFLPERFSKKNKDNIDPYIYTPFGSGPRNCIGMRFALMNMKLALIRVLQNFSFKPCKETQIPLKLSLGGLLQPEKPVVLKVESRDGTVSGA
Assay: qHTS Assay for Inhibitors and Substrates of Cytochrome P450 3A4 (AID 884); further: nearly all actives have a fitted effect of over 50% in size
Details: recombinant CYP3A4, Luciferin-PPXE luminescence; series mostly up to 57.1 µM
Inconclusive results are not listed. Active and inactive are the calls of the source. Calls follow the shape of the dose curve; as a rule, active = well fitted inhibition curve with a large enough effect; inconclusive = small, poorly fitted or top-dose-only effect; inactive = no such curve, though single readings can be large or run the other way.
Hi there, use one of these labels in your reply, thanks! active, inactive

Observe how each entry below is paired with its result.
smiles_data=FC(F)(F)c1ccccc1-c1nc(NC2CC2)c2ccccc2n1 class_label=active
smiles_data=COc1ccc(CNc2nc(-c3c(C)noc3C)nc3ccccc23)c(OC)c1 class_label=active

Ask: Recorded call for COc1cccc(-c2nccc(NCc3ccccc3)n2)c1 ?
Reply: active

Ask: Given O=S(=O)(c1ccccc1)N1CCC2(CC1)CN(C(c1ccccc1)c1ccccc1)C2 , state the outcome it received in this test.
Reply: inactive

---

Field: activity change, negative = inhibition. Provide a value for each of the compounds that follow.
Test: AP1 Signaling Pathway (AID 357);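 further: ME-180 reporter cells stimulated with EGF at its EC50 level; on the % scale 0 is the no-effect control and ±100 the full control effect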
Settings: ME-180 (cervical carcinoma) AP-1-bla reporter, EGF-induced, beta-lactamase ratio, 5 h; at 17.2 µM (top of the series)
Results filed as inconclusive are left out.
Answers are plain numbers, in %.

Below are worked cases with known answers.
smiles_data=CCN(CC)CC#CCOC(=O)[C@@](O)(c1ccccc1)C1CCCCC1 readout_value=0.766
smiles_data=C[C@@](N)(Cc1ccc(O)c(O)c1)C(=O)O readout_value=0.401
smiles_data=C[C@@]12C[C@@H](O)[C@H]3[C@@H](CCC4=CC(=O)CC[C@]43C)[C@H]1CC[C@H]2C(=O)CO readout_value=4.07

Ask: Fill in the blank: the reported activity change, negative = inhibition of C[C@@H](CCc1ccccc1)NC[C@H](O)c1ccc(O)c(C(N)=O)c1 is ____.
Reply: 10.2

---

Test system: CP237
Test: qHTS profiling for inhibitors of Plasmodium falciparum proliferation (AID 504749); further: nearly all actives have a fitted effect of over 60% in size
Conditions: P. falciparum in erythrocytes, SYBR Green DNA, 72 h; series mostly up to 12.8 µM
Results filed as inconclusive are left out. Calls of active or inactive are those of the source. The call rests on the fitted dose curve; in most records, active means well fitted inhibition curve with a large enough effect; inconclusive means small, poorly fitted or top-dose-only effect; inactive means flat fitted curve, though single readings scatter.
reported.metric: outcome

compound="C[N+](C)(C)CC(O)CC(=O)O (stereo unspecified)" experimental_system=CP237 readout_value=inactive
compound=C[n+]1ccccc1/C=N\O experimental_system=CP237 readout_value=inactive
compound=C[C@@H](C(=O)O)c1ccc(C(=O)c2cccs2)cc1 experimental_system=CP237 readout_value=inactive
compound=O=C(c1ccccc1)c1ccc2n1CC[C@H]2C(=O)O experimental_system=CP237 readout_value=inactive
compound=CCCN[C@@H](C)C(=O)Nc1c(C)csc1C(=O)OC experimental_system=CP237 readout_value=inactive
compound=C[C@@H](CCc1ccccc1)NC[C@H](O)c1ccc(O)c(C(N)=O)c1 experimental_system=CP237 readout_value=inactive

Fill in outcome for each of the 5 compounds listed.
1. CCC[C@H]1C(=O)N2C(N(C)C)=Nc3ccc(C)cc3N2C1=O
2. CN(C)[C@H]1C(=O)C(C(=O)NCN2CCCC2)=C(O)[C@]2(O)C(=O)C3=C(O)c4c(O)cccc4[C@@](C)(O)[C@H]3C[C@@H]12
3. NC(=O)OC[C@H](O)COc1ccc(Cl)cc1
4. C[C@@H]1COc2c(N3CCN(C)CC3)c(F)cc3c(=O)c(C(=O)O)cn1c23
5. CC[C@H](NC(C)C)[C@H](O)c1ccc(O)c(O)c1

Reply:
["inactive", "inactive", "inactive", "inactive", "inactive"]

---

Molecular target: Mitogen-activated protein kinase 10 (Mus musculus) (UniProt Q61831)
Assay: JNK3 AlphaScreen Assay (AID 530);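 further: kinase came from lysate of stimulated human HepG2 cells; signal reports phosphorylation of biotinylated GST-cJun 1-79 at Ser73 with 10 µM ATP; on the % scale 0 is the no-effect control and ±100 the full control effect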
Conditions: JNK3 lysate, c-Jun phosphorylation; series mostly up to 57.1 µM
Inconclusive results are not listed. Active and inactive are the calls of the source. Calls come from the whole dose curve; as a rule, active = well fitted curve in either direction with a large enough effect (not every such curve was filed as active); inconclusive = small, poorly fitted or top-dose-only effect, or another doubt; inactive = flat fitted curve, though single readings scatter.
reported.metric: outcome

smiles_data=COc1ncc2nc(-c3ccc(Cl)cc3)c(=O)n(-c3ccccc3)c2n1 readout_value=inactive
smiles_data=COCCn1c(=O)c(-c2cccs2)nc2cncnc21 readout_value=inactive
smiles_data=COc1ccc(-n2c(=O)c(C)nc3cnc(N(C)C)nc32)cc1 readout_value=inactive
smiles_data=CC(=O)N1CCC2(CCCN(c3ccncc3)C2)CC1 readout_value=inactive
smiles_data=Cn1cc(-c2nc3cnc(Oc4cccc(Cl)c4)nc3n(C3CC3)c2=O)c2ccccc21 readout_value=inactive

Could you tell me outcome for each of these compounds? They are listed below.
1. COCCn1c(=O)c(-c2ccc(OC)cc2)nc2cnc(Oc3cccc(Cl)c3)nc21
2. COc1cccc(Cn2c(=O)c(-c3ccc(F)cc3)nc3cncnc32)c1
3. c1ccc(C(c2ccccc2)N2CCCC3(CCNCC3)C2)cc1
4. COCC(=O)N1CCC2(CC1)CN(c1ccc(-c3ccccc3)cc1)C2
5. COc1ccc(Oc2ncc3nc(-c4ccc(OC)cc4)c(=O)n(CCC#N)c3n2)cc1
6. Cc1nc2cnc(Nc3ccccc3)nc2n(C[C@H]2CCCO2)c1=O

Reply:
["inactive", "inactive", "inactive", "inactive", "inactive", "inactive"]

---

Biological target: Dual specificity protein kinase CLK4 (Homo sapiens)
Assay: qHTS Assay for Inhibitors of CDC-like Kinase 4 (ADP-Glo Assay) (AID 1771); further: nearly all actives have a fitted effect of over 70% in size
Conditions: recombinant CLK4, ADP-Glo luminescence; series mostly up to 80 µM
Source text: NIH Molecular Libraries Probe Production Centers Network [MLPCN] NIH Chemical Genomics Center [NCGC] […] In the assay, the ADP levels were detected using Promega ADP-Glo technology wherein the remaining ATP from the kinase reaction is first depleted with an ATPase reagent followed by a reagent that contains and enzyme which converts the ADP produced to ATP as well as Ultra-Glo luciferase and D-luciferin which generates a bioluminescence signal from the ATP. […]
Inconclusive results are not listed. Active and inactive are the calls of the source. Calls follow the shape of the dose curve; as a rule, active = well fitted inhibition curve with a large enough effect; inconclusive = small, poorly fitted or top-dose-only effect; inactive = flat fitted curve, though single readings scatter.
Your reply should match one of these outcome classes. active, inactive

Worked examples, 10 molecules total:
smiles_data=COc1ccc(CNc2cc(-c3cccnc3)ncn2)c(OC)c1 class_label=active
smiles_data=CC(=O)NCCNc1ncnc2ccc(-c3ccccc3C#N)cc12 class_label=active
smiles_data=COc1ccc(-c2nc3cnc(Nc4cccc(OC)c4)nc3n(Cc3cccs3)c2=O)cc1 class_label=inactive
smiles_data=CN1CCN(c2ncnc3ccc(-c4cccnc4)cc23)CC1 class_label=active
smiles_data=O=c1c(-c2ccccc2)nc2cnc(N3CCOCC3)nc2n1C[C@H]1CCCO1 class_label=inactive
smiles_data=COc1ncc2nc(-c3ccccc3)c(=O)n(CCC#N)c2n1 class_label=inactive
smiles_data=CN1CCN(c2ncc3nc(-c4ccccc4)c(=O)n(C4CC4)c3n2)CC1 class_label=inactive
smiles_data=COc1ccc2[nH]cc(CCNc3ccnc(-c4c(C)noc4C)n3)c2c1 class_label=inactive
smiles_data=COc1cccc(-c2nccc(NCCc3c[nH]c4ccc(OC)cc34)n2)c1 class_label=active
smiles_data=COCCn1c(=O)c(-c2cccc(C#N)c2)nc2cnc(N3CCOCC3)nc21 class_label=inactive

Ask: Short answer needed: outcome of this test for CS(=O)(=O)Nc1cccc(-c2cncnc2Nc2ccccc2)c1 ?
Reply: active

Ask: Check the results log: what was the call for CCNc1ncc2nc(-c3cc(F)cc(F)c3)c(=O)n(CCOC)c2n1 ?
Reply: inactive

Ask: How did this test come out for COc1ccc(CNc2ccnc(-c3ccc(N(C)C)cc3)n2)c(OC)c1 ?
Reply: inactive

Ask: Hi team, can someone confirm the assay call for CN(C)c1ccc(-c2ccc3ncnc(NC4CC4)c3c2)cc1 ?
Reply: active

Ask: # fetch the recorded call for CN(C)Cc1ccccc1-c1cc(NCc2ccccc2)ncn1 here
Reply: inactive
